assay-info: SRB colorimetric cell growth inhibition assay, H-MEC-1
Type: cell-based
condition-notes: human, H-MEC-1 cells, H-MEC-1; LC=cell killing (cytotoxic effect); read-out: LC50 H-MEC-1
measured-property: CC50 (µM)
Hi! Could you send only the number? It should be in µM, unit omitted.

Some molecules with known CC50 results, for comparison:
Problem: Which value of CC50 has been reported for COc1cc2ccn3c(c(-c4ccc(OC(=O)[C@H](C)NC(=O)OC(C)(C)C)c(OC)c4)c4c5cc(OC)c(OC(=O)[C@H](C)NC(=O)OC(C)(C)C)cc5oc(=O)c43)c2cc1OC [Compound 77] in the records?
Solution: 11.7

Problem: Which value of CC50 has been reported for COc1cc(-c2c3c4cc(OC)c(OC(C)C)cc4oc(=O)c3n3ccc4c(OC(C)C)c(OC)c(OC)c(COS(C)(=O)=O)c4c23)ccc1OC(C)C [Compound 101] in the records?
Solution: 10.5

Problem: Which value of CC50 has been reported for COc1cc(-c2c3n(c4c(=O)oc5cc(OC(=O)c6cc(F)c(F)c(F)c6F)c(OC)cc5c24)CCc2c-3cc(OC)c(OC)c2OC(=O)c2cc(F)c(F)c(F)c2F)ccc1OC(=O)c1cc(F)c(F)c(F)c1F [Compound 99] in the records?
Solution: 7.42

Problem: Which value of CC50 has been reported for COc1cc2c(cc1OC)-c1c(-c3ccc(OC(=O)CCc4ccccc4)c(OC)c3)c3c4cc(OC)c(OC(=O)CCc5ccccc5)cc4oc(=O)c3n1CC2 [Compound 93] in the records?
Solution: 12.8

Problem: Which value of CC50 has been reported for COc1cc(-c2c3n(c4c(=O)oc5cc(OC(=O)[C@H](C)N)c(OC)cc5c24)CCc2c-3cc(OC)c(OC)c2OC(=O)[C@H](C)N)ccc1OC(=O)[C@H](C)N [Compound 96] in the records?
Solution: 9.2

Problem: Which value of CC50 has been reported for COc1cc(-c2c3c4cc(OC)c(OC(=O)[C@H](C)NC(=O)OC(C)(C)C)cc4oc(=O)c3n3ccc4c(OC(=O)[C@H](C)NC(=O)OC(C)(C)C)c(OC)c(OC)cc4c23)ccc1OC(=O)[C@H](C)NC(=O)OC(C)(C)C [Compound 97] in the records?
Solution: 9.59

More entries:
Problem: Which value of CC50 has been reported for COc1cc(-c2c3n(c4c(=O)oc5cc(OC(=O)[C@@H](N)COCc6ccccc6)c(OC)cc5c24)CCc2c-3cc(OC)c(OC)c2OC(=O)[C@@H](N)COCc2ccccc2)ccc1OC(=O)[C@@H](N)COCc1ccccc1 [Compound 66] in the records?
Solution: 4.93

Problem: Which value of CC50 has been reported for COc1cc2ccn3c(c(-c4ccc(OS(=O)(=O)C(F)(F)F)c(OC)c4)c4c5cc(OC)c(OS(=O)(=O)C(F)(F)F)cc5oc(=O)c43)c2cc1OC [Compound 126] in the records?
Solution: 6.46

Problem: Which value of CC50 has been reported for COc1cc(-c2c3n(c4c(=O)oc5cc(OC(=O)[C@@H]6CCCN6)c(OC)cc5c24)CCc2c-3cc(OC)c(OC)c2OC(=O)[C@@H]2CCCN2)ccc1OC(=O)[C@@H]1CCCN1 [Compound 118] in the records?
Solution: 6.45

Problem: Which value of CC50 has been reported for COc1cc2c(cc1OC)-c1c(-c3ccc(OC(=O)[C@H](Cc4ccccc4)NC(=O)OC(C)(C)C)c(OC)c3)c3c4cc(OC)c(OC(=O)[C@H](Cc5ccccc5)NC(=O)OC(C)(C)C)cc4oc(=O)c3n1CC2 [Compound 84] in the records?
Solution: 5.96

Problem: Which value of CC50 has been reported for COc1cc2c(cc1OC)-c1c(-c3ccc(OS(C)(=O)=O)c(OC)c3)c3c4cc(OC)c(OS(C)(=O)=O)cc4oc(=O)c3n1CC2 [Compound 92] in the records?
Solution: 14.9

Problem: Which value of CC50 has been reported for COc1cc2c(cc1OC)-c1c(-c3ccc(OC(=O)[C@H](C)N)c(OC)c3)c3c4cc(OC)c(OC(=O)[C@H](C)N)cc4oc(=O)c3n1CC2 [Compound 63] in the records?
Solution: 10.1

Problem: Which value of CC50 has been reported for COc1cc(-c2c3n(c4c(=O)oc5cc(O)c(OC)cc5c24)CCc2cc(O)c(OC)cc2-3)ccc1O [Compound 109] in the records?
Solution: 19.9

Problem: Which value of CC50 has been reported for COc1cc(-c2c3n(c4c(=O)oc5cc(OC(=O)[C@@H](N)Cc6ccccc6)c(OC)cc5c24)CCc2cc(OC(=O)[C@@H](N)Cc4ccccc4)c(OC)cc2-3)ccc1OC(=O)[C@@H](N)Cc1ccccc1 [Compound 115] in the records?
Solution: 2.96

Problem: Which value of CC50 has been reported for COc1cc(-c2c3c4cc(OC)c(OC(=O)[C@@H](N)CC(C)C)cc4oc(=O)c3n3ccc4cc(OC(=O)[C@@H](N)CC(C)C)c(OC)cc4c23)ccc1OC(=O)[C@@H](N)CC(C)C [Compound 39] in the records?
Solution: 8.47
